Test system: L1210
Experiment: Inhibition of [3H]thymidine uptake in L1210 cells
Type: functional, cell-based
Conditions: Mus musculus
Some molecules, each annotated with its measured IC50.
observed-property: IC50 (nM)

[[record]]
molecule = "COCC(COc1nc(N2CCCCC2)c2nc(OCC(COC)OC)nc(N3CCCCC3)c2n1)OC (stereo not drawn)"
units_of_measure = "nM"
recorded_measurement = 1880

[[record]]
molecule = "COc1ccc(CN(C)c2nc(OCCCO)nc3c(N(C)Cc4ccc(OC)c(OC)c4)nc(OCCCO)nc23)cc1OC"
units_of_measure = "nM"
recorded_measurement = 750

[[record]]
molecule = "COc1ccc(CNc2nc(N(CCO)CCO)nc3c(NCc4ccc(OC)cc4)nc(N(CCO)CCO)nc23)cc1"
units_of_measure = "nM"
recorded_measurement = 250


Values were extracted from ChEMBL document CHEMBL1138764.
